Each entry below carries its recorded % inhibition apPOL 180'.
target: P. falciparum apicoplast DNA polymerase (Pf-apPOL) (Plasmodium falciparum, UniProt Q8ILY1); experiment: Fluorescence-based high-throughput DNA polymerase assay (molecular beacon), primary screen and dose-response; assay type: biochemical; details: DRC-2; 180'; concentration 80
Sequence (Q8ILY1 entry or part of it): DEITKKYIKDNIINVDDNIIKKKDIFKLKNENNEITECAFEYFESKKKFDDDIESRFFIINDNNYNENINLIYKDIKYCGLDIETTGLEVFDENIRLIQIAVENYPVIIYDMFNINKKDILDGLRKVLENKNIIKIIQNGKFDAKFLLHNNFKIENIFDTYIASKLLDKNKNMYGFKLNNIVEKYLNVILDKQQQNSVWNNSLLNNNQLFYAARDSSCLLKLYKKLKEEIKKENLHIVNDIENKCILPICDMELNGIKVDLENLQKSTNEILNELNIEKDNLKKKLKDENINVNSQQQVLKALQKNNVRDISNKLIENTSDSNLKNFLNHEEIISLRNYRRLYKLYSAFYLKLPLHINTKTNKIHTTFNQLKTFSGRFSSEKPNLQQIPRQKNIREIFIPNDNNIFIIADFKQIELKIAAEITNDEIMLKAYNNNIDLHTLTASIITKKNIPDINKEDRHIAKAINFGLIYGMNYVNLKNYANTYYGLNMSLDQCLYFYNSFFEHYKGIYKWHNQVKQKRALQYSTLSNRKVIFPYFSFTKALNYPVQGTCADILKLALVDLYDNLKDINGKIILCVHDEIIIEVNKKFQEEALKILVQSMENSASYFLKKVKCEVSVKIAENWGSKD
Output spec: scalar in %, unitless text.

>  <compound>
COc1ccc(C=C2Oc3c(ccc4c3CN(c3ccc5c(c3)OCO5)CO4)C2=O)cc1OC

>  <measure>
% inhibition apPOL 180'

>  <recorded-number>
39

$$$$

stdin: Could you tell me which % inhibition apPOL 180' is on file for O=C(O)C(=O)Nc1nc(-c2ccc3c(c2)OCCO3)cs1 ?
stdout: 34

stdin: Same lookup for Cc1ccc(NC(=O)Cn2ccc3c(=O)[nH]ccc32)cc1F [Molecule 48, O=C(Cn1ccc2c1cc[nH]c2=O)Nc1ccc(c(c1)F)C] , please.
stdout: 69

stdin: Same lookup for CCOc1nc2cccc(C(=O)OC(C)OC(=O)OC3CCCCC3)c2n1Cc1ccc(-c2ccccc2-c2nnn[nH]2)cc1 (stereo not shown) , please.
stdout: 75

stdin: Same lookup for CN(C)C1C(c2ccccc2)=C(c2ccccc2)SC(c2ccccc2)C1[N+](=O)[O-] (stereo not shown) , please.
stdout: 70

stdin: Same lookup for Cc1ccc(C)c(CSc2nc(C3CCCCC3)c(C#N)c(=O)[nH]2)c1 , please.
stdout: 80

stdin: Same lookup for O=c1[nH]c2ccc([N+](=O)[O-])cc2c(-c2ccccc2)c1Sc1nc2ccccc2o1 , please.
stdout: 72

----------
target: P. falciparum apicoplast DNA polymerase (Pf-apPOL) (Plasmodium falciparum); experiment: Fluorescence-based high-throughput DNA polymerase assay (molecular beacon), primary screen and dose-response; format: biochemical; conditions: DRC-1; read at 180'; concentration 20
measure: % inhibition apPOL 180' 20 (%)
Output spec: scalar in %, unitless text.

Use these answered entries as a reference point.
>  <compound>
Cc1nc(C)c2c(n1)N(CC1CCCCC1)C(=O)CC2 [KU0218606]

>  <% inhibition apPOL 180' 20 (%)>
43.6778

$$$$
>  <compound>
Cn1nc(-c2nc(-c3ccccc3)no2)c2c1CCN(C(=O)Cc1cccs1)C2 [Molecule 58]

>  <% inhibition apPOL 180' 20 (%)>
21

$$$$
>  <compound>
Cc1cccc(-c2noc(C(=O)NNC(=O)C(Cl)(Cl)Cl)n2)c1 [KU0266208]

>  <% inhibition apPOL 180' 20 (%)>
8.812

$$$$
>  <compound>
CC(=O)OCC1=C(C(=O)[O-])N2C(=O)[C@@H](NC(=O)Cc3cccs3)[C@H]2SC1.[Na+] [Molecule 73]

>  <% inhibition apPOL 180' 20 (%)>
-0.1262

$$$$

stdin: Could you tell me which % inhibition apPOL 180' 20 is on file for O=C(CCc1csc(NC(=O)Nc2ccccc2)n1)Nc1nc2ccccc2s1 [KU0177354] ?
stdout: 39.4261

stdin: Same lookup for O=C1CSC2=NC3=C(CCc4ccccc43)C(c3cccs3)N12 (centres unmarked) [Molecule 59, O=C1CSC2=NC3=C(C(N12)c1cccs1)CCc1c3cccc1] , please.
stdout: 18.673

stdin: Same lookup for COc1ccc(C2CC(c3ccc(Cl)cc3Cl)Nc3nc(N)nn32)cc1OC (centres unmarked) [Molecule 43] , please.
stdout: 43

stdin: Same lookup for Cn1nc(-c2nnc(-c3ccccc3F)o2)c2c1CCN(C(=O)c1ccccc1Cl)C2 [Molecule 34] , please.
stdout: 50

stdin: Same lookup for Nc1cc(Oc2ccc(O)c(N)c2)ccc1O [KU0034728] , please.
stdout: 34.6321

stdin: Same lookup for N#Cc1c(O)nc(N2CCCCC2)nc1-c1ccc2c(c1)OCO2 [KU0083146] , please.
stdout: 34.0367

stdin: Same lookup for Cc1ccc(N2CCC(NC(=O)Cc3cccs3)C2=O)cc1C (centres unmarked) [Molecule 57, O=C(NC1CCN(C1=O)c1ccc(c(c1)C)C)Cc1cccs1] , please.
stdout: 30.1368

stdin: Same lookup for CC(=O)Nc1cc(C(=O)c2cccs2)nn(-c2ccc(Cl)cc2)c1=O [KU0267905] , please.
stdout: 2.642

stdin: Same lookup for O=C(c1ccccc1)N1CCc2c(nc3cc(-c4ccccc4)[nH]n3c2=O)C1 [Molecule 30] , please.
stdout: 42.2339

stdin: Same lookup for COc1ccccc1CC(=O)N1CCc2c(nc3cc(-c4ccccc4Cl)[nH]n3c2=O)C1 [Molecule 49] , please.
stdout: 20

stdin: Same lookup for Cc1ccsc1Cn1c(C)ccc1C [Molecule 70, Cc1ccsc1Cn1c(C)ccc1C] , please.
stdout: 6.387

stdin: Same lookup for COc1ccc(/C=C/c2cc(C(=O)O)c3ccccc3n2)cc1 [Molecule 5, COc1ccc(cc1)/C=C/c1nc2ccccc2c(c1)C(=O)O] , please.
stdout: 54.1695

stdin: Same lookup for CCCc1ccc(Oc2coc3cc(OC)ccc3c2=O)cc1 [KU0193249] , please.
stdout: 21.3211
